// data source = the RNAGym collection of RNA variant scans (doi:10.1093/nar/gkz1192)

B1: CPEB3 Ribozyme (parent)
chain: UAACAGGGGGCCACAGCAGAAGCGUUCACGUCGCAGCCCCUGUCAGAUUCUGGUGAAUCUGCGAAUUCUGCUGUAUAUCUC

- Variants of: B1
- Assay summary: self-cleavage, relative activity (ratio to wild type); higher = more cleavage; in vitro, sequencing
For each record, write down the corresponding self-cleavage.

Value of self-cleavage reported for the variant A2G G9U is 0.42

For record U60C U69A the listed self-cleavage is 0.35

Entry A45G G73U ; self-cleavage = 1.29

The recorded self-cleavage for A13U U41C is 1.2

Recorded result, A18G C40A , self-cleavage: 0.14

variant U26C A47U , self-cleavage observed: 0.36

variant A3C A45G , self-cleavage observed: 0.93

The value of self-cleavage measured for the variant C12A A20G turned out to be 1.17

For record A45U U72C the listed self-cleavage is 0.5

Kindly note the recorded self-cleavage for C40G U78C , which is 0.38

What the record says about A45G U60C : self-cleavage is 1.13

So for G30A U80C , the logged self-cleavage turned out to be 0.41

// self-cleavage lookup, variant = G7A U58C , result: 0.13

variant A15C U41C , self-cleavage observed: 1.13

Looking up C12G C27U , I found its self-cleavage recorded as 0.18

What the record says about A13G U69G : self-cleavage is 0.39

Entry C11U A57G , self-cleavage reported as 0.33

self-cleavage reported for this variant A47C U60A : 0.15

Field self-cleavage (entry G30U G42A ) reads 0.23

Noted for U25G A64U : its self-cleavage reads 0.23

In plain terms, C23U U26C has a documented self-cleavage of 0.2

Please fill in: self-cleavage reported for G16U U76A = 0.33

So, A45C A65U ? Its self-cleavage was 0.12

For A3U C38G the variant record lists self-cleavage as 0.31

self-cleavage reported for this variant C27U A56G : 0.52

Measured self-cleavage, C17G A28G : 0.16

Record summary for C12A A64U : reported self-cleavage = 0.56

Value of measured self-cleavage for the entry C11U U69A : 0.24

Form: variant = G36A U43C ; self-cleavage = 0.29

// self-cleavage value for G16C U26C : 0.23

response.value for A47U U74G (field: self-cleavage) = 0.96

self-cleavage recorded for this variant, U48C C50U , is 0.54

// recorded self-cleavage for C12A A47G : 1.17

self-cleavage reading for A45G C62G : 0.25

Query C29A A47G yields self-cleavage of 0.4

The variant U31G C32A showed self-cleavage equal to 0.28

self-cleavage measured on C12A A65G = 0.44

The measured self-cleavage associated with C12U U60G reads 0.46

Entry C23G G63U ; self-cleavage = 0.32

self-cleavage measured on U43C G53C = 0.88

Documented self-cleavage of A45U U74A : 1.03

C17U G61U yielded self-cleavage of 0.27

Looking up A2G A3G , I found its self-cleavage recorded as 1.01

Given item A35U U49C , the value recorded as its self-cleavage is 0.27

According to the records, this variant C40U C59U displays self-cleavage of 0.28

self-cleavage in this record for U41C A56C : 0.64

Record summary for U72A G73C : reported self-cleavage = 1.25

Query A13U C50U yields self-cleavage of 0.89

Briefly, self-cleavage measured for C62A : 0.31

Entry A13U G73C , self-cleavage reported as 1.26

Recorded self-cleavage (variant A5C C37G ): 0.87

Noted for U51C C71U : its self-cleavage reads 0.62

Consider A28C U72A . Its measured self-cleavage is 0.38

Looking up U54A U58A , I see its self-cleavage listed as 0.45

// sample A3U A47G , its self-cleavage was 1.17

The variant identified as U69A C71U registered its self-cleavage at 0.33

What the record says about A5C U74C : self-cleavage is 1.19

U25G C71G has a reported self-cleavage of 0.16

# variant G19U A35G ; its self-cleavage = 0.63

Recorded self-cleavage (variant G9U C38A ): 1.09
